test: Cell viability; type: cell-based, human; conditions: human, PC-3 cells (androgen-independent prostate cancer cell line)
quantity_name: viability at 24 h, 50 µM

// query GET /values?readout=viability at 24 h, 50 µM&item= "O=C(N/N=C/c1cc(Br)ccc1O)c1cc2ccccc2cc1O"
// result 50 to 60%

###

experiment: Cell viability; format: cell-based; conditions: human, LNCaP cells (androgen-dependent prostate cancer cell line)
quantity_name: viability at 24 h, 50 µM

// query GET /values?readout=viability at 24 h, 50 µM&item= O=C(N/N=C/c1cc(Br)ccc1O)c1cc2ccccc2cc1O [Compound 4]
// result 50 to 60%

Where these numbers come from: paper PMC3295204
